tgt: T1, PCSK9Δhelix (human, Chemically biotinylated in the phage ELISAs; the site is not given.)
T1 construct: construct M1-Q692 with engineered TEV site, cleaved by TEV; also called His-PCSK9Δhelix; open groove PCSK9Δhelix
assay_method_text: phage spot ELISA;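 note: phage clones bound to PCSK9 or PCSK9Δhelix by ELISA, noise being the same phage on NeutrAvidin, positive when signal above 0.4 and signal:noise above 2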
readout: ELISA
Please give the numeric answer without any surrounding text.

- binder: "TAFTSWEEYLDWVGSGEDVVCYGRVDYMPLCV [SEQ ID NO 330]"
  ELISA: 2.7
- binder: "TAFTSWEEYLDWVGSGACLNHFVSGNMIRC [SEQ ID NO 327]"
  ELISA: 1.38
- binder: "TAFTSWEEYLDWVGSGNVRCYRDVPSCS [SEQ ID NO 329]"
  ELISA: 2.68
- binder: "TAFTSWEEYLDWVGSGMVYVDRGVRVFT [SEQ ID NO 322]"
  ELISA: 2.71
- binder: "TAFTSWEEYLDWVGSGVPWNLARL [SEQ ID NO 314]"
  ELISA: 2.68

Task item: Let me know recorded ELISA for TAFTSWEEYLDWVGSGKLWNLTRISS [SEQ ID NO 312] , thanks.
Reply: 2.69

Task item: Let me know recorded ELISA for TAFTSWEEYLDWVGSGTRYADRGVMVYSLS [SEQ ID NO 321] , thanks.
Reply: 2.81

These data points were gathered from patent US20200283478A1.
